# credit: patent US12234258B2

test system: SW480, human colon adenocarcinoma cells; assay: Growth of cancer cell lines: SW480; format: cell-based; conditions: mean ± S.D., n = 3; read-out: IC50 against growth of SW480
Recorded pIC50 for the following molecules
API: returns pIC50 as number; meaning -log10 of concentration in mol/L.

// query So what pIC50 did C[C@H]1CC[C@@]2(OC1)O[C@H]1C[C@H]3[C@@H]4CC[C@@H]5C[C@@H](O[C@@H]6O[C@H](CO)[C@H](O)[C@H](O)[C@H]6O[C@@H]6O[C@H](CO)[C@@H](O)[C@H](O)[C@H]6O)CC[C@]5(C)[C@H]4CC[C@]3(C)[C@H]1[C@@H]2C get with SW480, human colon adenocarcinoma cells?
// result 4.91

Further cases:
// query So what pIC50 did C[C@H]1CC[C@@]2(OC1)O[C@H]1C[C@H]3[C@@H]4CC[C@@H]5C[C@@H](O)CC[C@]5(C)[C@H]4CC[C@]3(C)[C@H]1[C@@H]2C get with SW480, human colon adenocarcinoma cells?
// result 4.53
